Target: UniProtKB P61964
Conditions: FPA and TR-FRET binding affinity, WDR5 WIN-site
ASSAY_METRIC: Ki (nM)

As a guide, the following entries are already answered.
>  <COMPOUND>
Cc1cnc(Cl)c(C(=O)N[C@@H]2CCc3ccc(-c4cn5c(n4)CCC5)cc32)c1

>  <UNIT>
nM

>  <Ki>
22.9

$$$$
>  <COMPOUND>
CCC(=O)N1CCCC(C(=O)N[C@@H]2CCc3ccc(-c4cn5c(n4)CCC5)cc32)C1 (stereo partly shown)

>  <UNIT>
nM

>  <Ki>
7.16

$$$$
>  <COMPOUND>
COc1cncc(C(=O)N[C@@H]2CCc3ccc(-c4cn5c(n4)CCC5)cc32)c1

>  <UNIT>
nM

>  <Ki>
18.5

$$$$
>  <COMPOUND>
Cc1ccc(C(=O)NC2CCc3ccc(-c4cn5c(n4)CCC5)cc32)cc1C(F)(F)F (stereo not shown)

>  <UNIT>
nM

>  <Ki>
1380

$$$$
>  <COMPOUND>
O=C(N[C@@H]1CCc2ccc(-c3cn4c(n3)CCC4)cc21)c1ccc(=O)[nH]c1

>  <UNIT>
nM

>  <Ki>
835

$$$$
>  <COMPOUND>
CCC(=O)N1CCCC(C(=O)N[C@@H]2CCCc3ccc(-c4cn5c(n4)CCC5)cc32)C1 (stereo partly shown)

>  <UNIT>
nM

>  <Ki>
14.3

$$$$

1. CC(=O)N1CCCC(C(=O)NC2CCc3ccc(-c4cn5c(n4)CCC5)cc32)C1 (stereo not shown)
2. CCC(=O)N1CCCC(C(=O)NC2CCc3ccc(-c4cn5c(n4)CCC5)cc32)C1 (stereo not shown)
3. COc1cccc(C(=O)N(CC2CC2)C2CCc3ccc(-c4cn5c(n4)CCC5)cc32)c1 (stereo not shown)
4. O=C(N[C@@H]1CCc2ccc(-c3cn4c(n3)CCC4)cc21)c1ccnc(Cl)c1
Req: Order the records so the highest Ki appears first and the lowest last. State the ranking by listing the labels in the requested order.
Resp: 3, 4, 1, 2

Source: patent US10501466B2
